Reported values of pIC50 for individual entries
- system tested: GCN2 (Mus musculus, UniProt Q9QZ05)
- Construct: endogenous in cells
- Sequence (Q9QZ05 whole entry): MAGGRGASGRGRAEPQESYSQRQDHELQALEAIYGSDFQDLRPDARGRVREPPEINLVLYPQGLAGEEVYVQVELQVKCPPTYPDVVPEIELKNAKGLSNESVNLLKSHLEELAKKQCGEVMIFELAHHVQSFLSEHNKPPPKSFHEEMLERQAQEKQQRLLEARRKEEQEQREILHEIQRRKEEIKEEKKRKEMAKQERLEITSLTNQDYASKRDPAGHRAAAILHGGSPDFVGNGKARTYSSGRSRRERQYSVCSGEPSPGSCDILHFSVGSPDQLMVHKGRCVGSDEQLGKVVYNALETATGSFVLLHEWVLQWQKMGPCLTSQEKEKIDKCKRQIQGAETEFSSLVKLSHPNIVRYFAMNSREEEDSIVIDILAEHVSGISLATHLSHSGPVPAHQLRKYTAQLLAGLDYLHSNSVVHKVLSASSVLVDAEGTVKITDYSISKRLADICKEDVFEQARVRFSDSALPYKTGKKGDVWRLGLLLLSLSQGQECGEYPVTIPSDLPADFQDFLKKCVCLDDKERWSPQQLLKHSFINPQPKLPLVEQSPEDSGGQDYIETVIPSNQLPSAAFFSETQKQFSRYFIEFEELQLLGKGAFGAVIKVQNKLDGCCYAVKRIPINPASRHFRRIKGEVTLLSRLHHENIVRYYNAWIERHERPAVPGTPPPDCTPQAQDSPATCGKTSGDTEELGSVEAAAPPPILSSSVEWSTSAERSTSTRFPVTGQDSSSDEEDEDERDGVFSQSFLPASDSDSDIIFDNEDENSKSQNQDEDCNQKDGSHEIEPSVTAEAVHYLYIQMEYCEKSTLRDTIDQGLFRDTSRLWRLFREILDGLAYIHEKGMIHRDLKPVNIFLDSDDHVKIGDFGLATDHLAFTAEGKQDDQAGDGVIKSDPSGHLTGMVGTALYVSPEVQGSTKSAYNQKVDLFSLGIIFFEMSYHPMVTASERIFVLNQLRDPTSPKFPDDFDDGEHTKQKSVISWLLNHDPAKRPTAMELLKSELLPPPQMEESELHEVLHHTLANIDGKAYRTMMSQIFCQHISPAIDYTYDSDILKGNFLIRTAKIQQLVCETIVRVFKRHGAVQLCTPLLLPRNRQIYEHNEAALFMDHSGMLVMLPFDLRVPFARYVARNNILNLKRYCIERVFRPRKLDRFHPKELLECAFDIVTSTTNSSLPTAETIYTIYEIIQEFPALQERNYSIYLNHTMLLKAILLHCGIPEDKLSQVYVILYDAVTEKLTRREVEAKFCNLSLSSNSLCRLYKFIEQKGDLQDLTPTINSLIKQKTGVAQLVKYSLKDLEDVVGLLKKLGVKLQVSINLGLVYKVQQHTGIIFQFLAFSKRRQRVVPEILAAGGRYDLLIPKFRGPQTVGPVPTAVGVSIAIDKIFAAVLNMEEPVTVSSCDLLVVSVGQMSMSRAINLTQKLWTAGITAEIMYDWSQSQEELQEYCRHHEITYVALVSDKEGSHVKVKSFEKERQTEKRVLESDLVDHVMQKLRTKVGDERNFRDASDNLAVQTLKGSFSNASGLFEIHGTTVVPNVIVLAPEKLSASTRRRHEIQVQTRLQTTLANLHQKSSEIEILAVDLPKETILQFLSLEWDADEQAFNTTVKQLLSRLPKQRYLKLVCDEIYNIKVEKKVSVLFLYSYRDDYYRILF
- test method notes: GCN2 inhibition cell-based assay (P-GCN2 Western blot in Neuro 2a cells)
- experimental conditions: amino acid deprived media (DMEM lacking L-cysteine and methionine), 3 hours
pIC50: −log10 of the molar value.

Worked examples, 3 compounds total:
Nc1ncc2cc(-c3c(F)ccc(NS(=O)(=O)c4ccc(F)c(C(F)(F)F)c4)c3F)ccc2n1 [Compound 138]    < 6.00
Nc1ncc2cc(-c3c(F)ccc(NS(=O)(=O)c4cccnc4)c3F)ccc2n1    < 6.00
Nc1ncc2cc(-c3c(F)ccc(NS(=O)(=O)c4cc(C(F)(F)F)ccc4C(F)(F)F)c3F)ccc2n1    > 8.00

Challenge: Which pIC50 value belongs to COc1ncc(Cl)cc1S(=O)(=O)Nc1ccc(F)c(-c2ccc(-c3cnc(N)nc3)nc2)c1F ?
Response given: < 6.00
